Target: T1, human TREM2 (human, UniProt Q9NZC2 19-174, limits assumed)
T1 sequence: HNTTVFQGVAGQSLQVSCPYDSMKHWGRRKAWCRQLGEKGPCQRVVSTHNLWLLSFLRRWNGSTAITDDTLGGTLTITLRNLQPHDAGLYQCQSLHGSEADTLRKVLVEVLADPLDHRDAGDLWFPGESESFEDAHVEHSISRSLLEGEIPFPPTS
Experiment: yeast-displayed Fab FACS, 1st screen 10 nM
Provide the recorded binding signal fold over 6E7 parental for the entries that follow.
Numbers only, in fold.

binder	binding signal fold over 6E7 parental / fold
V74 (Fab, V domains shown) VH: EVQLVQSGAEVKKPGESLKISCKGSGYSFASYWIAWVRQMPGKGLEWMGIIYPGDSDVRYSPSFQGQVTISADKSISTAYLQWSSLKASDTAMYFCARGRTFYYDSSDYFDYWGQGTLVTVSS VL: DIQMTQSPSSVSASVGDRVTITCRASQGISSWLAWYQQKPGKAPKLLIYAASSLQLGVPSRFSGSGSGTDFTLTISSLQPEDFATYFCQQADSFPRTFGQGTKLEIK	3.94
V52 (Fab, V domains shown) VH: EVQLVQSGAEVKKPGESLKISCKGSGYSFESYWIAWVRQMPGKGLEWMGIIYPGDSDTRYSPSFQGQVTISADKSISTAYLQWSSLKASDTAMYFCARGRTFYYDSSDYFDYWGQGTLVTVSS VL: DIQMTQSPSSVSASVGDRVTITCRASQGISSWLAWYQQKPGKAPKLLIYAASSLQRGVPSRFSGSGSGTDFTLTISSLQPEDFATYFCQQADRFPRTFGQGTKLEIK	3

// next entry
### Prompt Need binding signal fold over 6E7 parental, item V26 (Fab, V domains shown) VH: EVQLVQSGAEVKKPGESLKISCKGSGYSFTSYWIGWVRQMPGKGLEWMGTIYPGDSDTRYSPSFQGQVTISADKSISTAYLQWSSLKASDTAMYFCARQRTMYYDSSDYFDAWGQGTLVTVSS VL: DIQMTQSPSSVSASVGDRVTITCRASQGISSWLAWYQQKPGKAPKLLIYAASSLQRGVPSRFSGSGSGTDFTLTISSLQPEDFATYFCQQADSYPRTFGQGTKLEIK
### Response 3.57
